The values you see were collected from BindingDB's records for patent US20240208932.

biological target: Cytochrome P450 2D6 (Homo sapiens)
Sequence (P10635 whole entry): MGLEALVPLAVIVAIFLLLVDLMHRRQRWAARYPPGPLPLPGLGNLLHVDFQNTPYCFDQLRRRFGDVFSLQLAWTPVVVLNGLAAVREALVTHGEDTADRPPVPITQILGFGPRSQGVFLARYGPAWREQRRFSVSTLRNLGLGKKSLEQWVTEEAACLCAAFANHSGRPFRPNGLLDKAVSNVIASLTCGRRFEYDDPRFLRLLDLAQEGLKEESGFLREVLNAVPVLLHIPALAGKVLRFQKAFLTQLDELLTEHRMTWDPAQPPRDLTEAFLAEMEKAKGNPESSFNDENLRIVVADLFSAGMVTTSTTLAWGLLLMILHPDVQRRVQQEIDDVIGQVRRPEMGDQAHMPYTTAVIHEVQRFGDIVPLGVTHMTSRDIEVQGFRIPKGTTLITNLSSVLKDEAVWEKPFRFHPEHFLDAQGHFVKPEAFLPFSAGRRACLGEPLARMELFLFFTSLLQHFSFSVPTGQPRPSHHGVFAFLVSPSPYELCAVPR

| entry.smiles | IC50 / µM |
| --- | --- |
| C[C@@H]1Cc2c([nH]c3ccccc23)[C@H](c2c(F)cc(N[C@H]3CCN(CCCF)C3)cc2F)N1CC(F)(F)F | 13.8 |

====

molecular target: Cytochrome P450 2C19 (Homo sapiens)
Sequence (P33261 whole entry): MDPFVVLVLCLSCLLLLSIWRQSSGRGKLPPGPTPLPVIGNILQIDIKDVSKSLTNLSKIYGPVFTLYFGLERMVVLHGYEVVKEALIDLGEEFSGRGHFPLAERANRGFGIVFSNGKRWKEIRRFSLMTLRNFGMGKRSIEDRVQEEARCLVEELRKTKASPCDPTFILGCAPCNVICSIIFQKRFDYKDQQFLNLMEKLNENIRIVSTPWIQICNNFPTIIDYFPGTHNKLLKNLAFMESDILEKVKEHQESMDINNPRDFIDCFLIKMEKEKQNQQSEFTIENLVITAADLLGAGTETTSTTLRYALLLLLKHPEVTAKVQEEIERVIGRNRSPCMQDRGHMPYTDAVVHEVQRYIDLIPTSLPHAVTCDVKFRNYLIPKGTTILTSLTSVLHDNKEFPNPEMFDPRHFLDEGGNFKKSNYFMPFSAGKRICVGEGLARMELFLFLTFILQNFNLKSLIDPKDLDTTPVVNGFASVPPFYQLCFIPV
pIC50: −log10 of the molar value.
readout.kind: pIC50

| entry.smiles | experimental.result |
| --- | --- |
| C[C@@H]1Cc2c([nH]c3ccccc23)[C@H](c2c(F)cc(N[C@H]3CCN(CCCF)C3)cc2F)N1CC(F)(F)F | 4.72 |
